test system: left atrial muscle; test: Test Method 1: enhancement of contracting force of left atrial muscle extirpated from a guinea pig (electrically stimulated at 1 Hz); type: cell-based; conditions: Cavia porcellus, Krebs-Henseleit solution 32° C., read-out: EC20 (molar concentration for enhancing the left atrial muscle contracting force to the level of 20%)
Listed here: items and their measured log10(EC20).
Reported property: log10(EC20) (log10 of the value in µM)

>>> df
                                    compound              target  test_result
 0  O=C(c1ccccc1)c1cc(Cl)cc2c(=O)cc[nH]c12 [Compound 18, 8-benzoyl-6-chloro-4(1H)-quinolone]  left atrial muscle         1.00
 1  CCN(CC)c1cc(C)c2[nH]ccc(=O)c2c1 [Compound 9, 6-diethylamino-8-methyl-4(1H)-quinolone]  left atrial muscle         1.61
 2  Cc1cc(Cl)cc2c(=O)cc[nH]c12 [Compound 71, 6-chloro-8-methyl-4(1H)-quinolone]  left atrial muscle         1.09
 3  CCOC(=O)c1cn(CC)c2c(C)c(C)ccc2c1=O [Compound 81]  left atrial muscle         1.55
 4  COc1cc2[nH]ccc(=O)c2cc1OC [Compound 6, 6,7-dimethoxy-4(1H)-quinolone]  left atrial muscle         1.00
 5  CCOC(=O)c1c[nH]c2c(OC)cc(OCC)cc2c1=O [Compound 76]  left atrial muscle         1.59
 6  COCCOc1cc2[nH]ccc(=O)c2cc1OC [Compound 55]  left atrial muscle         2.12
 7  CCCCOc1cc2[nH]ccc(=O)c2cc1OC [Compound 52, 7-n-butoxy-6-methoxy-4(1H)-quinolone]  left atrial muscle         1.58
 8  CCOc1cc2[nH]ccc(=O)c2cc1OCC [Compound 10, 6,7-diethoxy-4(1H)-quinolone]  left atrial muscle         0.27
 9  CCCCOc1cc2[nH]c(C3CC3)cc(=O)c2cc1OC [Compound 115]  left atrial muscle         1.18
10  CCOC(=O)c1cn(CC)c2ccc(CC)cc2c1=O [Compound 85]  left atrial muscle         0.20
11  O=c1cc(-c2cccs2)[nH]c2ccccc12 [Compound 100, 2-(2-thienyl)-4(1H)-quinolone]  left atrial muscle         0.73
12  CCOC(=O)c1cn(CC)c2ccc(C)cc2c1=O [Compound 33]  left atrial muscle         1.48

The reported numbers originate from patent US5081121A.
